Answer each item with its documented cell viability.
Test system: SEM cells
assay.details: cell viability relative to DMSO control; higher = less cytotoxic
test.conditions: HPLM + 10% dialyzed FBS; 48 h; 0.0632 µM
Numbers only, in %.

Consider the worked cases shown below.
molecule | measure | quantitative.readout
C[C@@H](Oc1ccc2[nH]nc(/C=C/c3cnn(CCO)c3)c2c1)c1c(Cl)cncc1Cl | cell viability | 85.6
NCC/1=C/NC(=S)N1[C@H]2CCC3=C(F)C=C(F)C=C3C2 | cell viability | 93.3
COC1=CC=CC(=C1/C2=N/CC3=C(N=C(NC4=CC(=C(C=C4)C(O)=O)OC)N=C3)C5=CC=C(Cl)C=C25)F | cell viability | 65.7
CN1CCN(c2cc(C(=O)Nc3ccc4c(c3)-c3c(c(C(N)=O)nn3-c3ccc(F)cc3)CC4)c(Cl)cn2)CC1 | cell viability | 116

Hey, quick one: what's cell viability for each of these?
1. NNC(=O)c1ccncc1
2. Cc1nc(C(=O)NCC(=O)O)c(O)c2ccc(Oc3ccccc3)cc12
3. N[S+](=O)([O-])c1cc2c(cc1Cl)NCN[S+]2(=O)[O-]

A.
93.8
116
104

For the 2 molecules below, give their cell viability values.
1. O=C(/C=C/c1cccnc1)NCCCCC1CCN(C(=O)c2ccccc2)CC1
2. CC(CCc1ccc(O)cc1)NCCc1ccc(O)c(O)c1 (centres undefined)

A.
1: 7.6; 2: 133
